tested on: Human alphaherpesvirus 2; test: Antiviral activity against Herpes simplex virus 2 G infected in human HEL cells assessed as inhibition of virus-induced cytopathic effect; assay type: functional, cell-based; conditions: Human alphaherpesvirus 2, strain G
Give measured EC50 for each item. Keep answers brief.

Field: example entries. Status: answers known.
compound=Nc1nc(Cl)c2ncn(CCC(CO)CO)c2n1 result="> 100 µM"
compound="CC(C)(NP(=O)(OCC(CCn1cnc2c(=O)[nH]c(N)nc21)COP(=O)(NC(C)(C)C(=O)OCc1ccccc1)Oc1cccc2ccccc12)Oc1cccc2ccccc12)C(=O)OCc1ccccc1 (centres undefined)" result="> 20 µM"
compound="COc1nc(N)nc2c1ncn2CCC(COP(=O)(N[C@@H](C)C(=O)OCC(C)(C)C)Oc1cccc2ccccc12)COP(=O)(N[C@@H](C)C(=O)OCC(C)(C)C)Oc1cccc2ccccc12 (some centres undefined)" result="> 100 µM"

Now look at this one.
Prompt line: Which value of EC50 has been reported for C[C@H](NP(=O)(OCC(CO)CCn1cnc2c(Cl)nc(N)nc21)Oc1ccccc1)C(=O)OCc1ccccc1 (mixture of isomers) in the records?
Response line: > 100 µM
